Cited source: PubChem BioAssay AID652130

- Study System: Perilipin-5 (Homo sapiens) + 1-acylglycerol-3-phosphate O-acyltransferase ABHD5 (Homo sapiens) (UniProt Q00G26+Q8WTS1)
- Sequence (Q00G26 whole entry, looked up): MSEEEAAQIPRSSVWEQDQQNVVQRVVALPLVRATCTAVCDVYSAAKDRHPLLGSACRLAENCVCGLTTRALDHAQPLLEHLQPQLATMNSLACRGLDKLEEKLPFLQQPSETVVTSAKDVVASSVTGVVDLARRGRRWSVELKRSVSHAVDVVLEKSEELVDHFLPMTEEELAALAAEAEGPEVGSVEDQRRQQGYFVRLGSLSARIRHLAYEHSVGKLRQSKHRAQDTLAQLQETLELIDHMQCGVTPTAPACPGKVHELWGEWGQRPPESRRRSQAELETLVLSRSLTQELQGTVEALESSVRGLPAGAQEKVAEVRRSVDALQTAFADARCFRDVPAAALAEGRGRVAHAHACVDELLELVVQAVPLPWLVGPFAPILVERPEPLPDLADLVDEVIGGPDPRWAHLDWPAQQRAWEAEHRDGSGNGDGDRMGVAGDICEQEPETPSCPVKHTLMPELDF
- Sequence (Q8WTS1 whole entry, looked up): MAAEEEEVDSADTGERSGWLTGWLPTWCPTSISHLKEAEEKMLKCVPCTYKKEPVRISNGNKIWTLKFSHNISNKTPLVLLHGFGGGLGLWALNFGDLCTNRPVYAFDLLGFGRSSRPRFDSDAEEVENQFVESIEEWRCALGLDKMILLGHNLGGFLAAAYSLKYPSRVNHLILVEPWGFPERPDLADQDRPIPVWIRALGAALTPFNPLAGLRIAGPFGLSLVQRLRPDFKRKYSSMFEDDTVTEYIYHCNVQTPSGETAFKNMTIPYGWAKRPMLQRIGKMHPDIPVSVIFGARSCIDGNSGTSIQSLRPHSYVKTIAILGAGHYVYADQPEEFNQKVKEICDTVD
- Method: PubChem AID 652130
- Conditions Used: ABHD5/PLIN5 interaction, luminescence, HEK293T-produced proteins
The source made the active and inactive calls. No rule for the calls is given here.
Outcomes: YES for active, NO for inactive

Smiles Notation: CCCCCCNC(=O)Nc1ccc2c(c1)Sc1ccccc1C(=O)N2C
Category: NO
--
Smiles Notation: CCS(=O)(=O)c1ncc(Cl)c(C(=O)Nc2ccc(S(N)(=O)=O)cc2)n1
Category: YES
--
Smiles Notation: O=C(Cc1ccc2c(c1)CCCC2)N1CCN(S(=O)(=O)c2ccc3c(c2)OCCO3)CC1
Category: NO
--
Smiles Notation: CCCNC(=O)Nc1ccc2c(c1)N(CC)C(=O)c1ccccc1S2
Category: NO
--
Smiles Notation: CC(C)N1C(=O)c2ccccc2Oc2ccc(NC(=O)c3ccccc3)cc21
Category: NO
--
Smiles Notation: O=C(c1nc(S(=O)(=O)Cc2ccccc2)ncc1Cl)N(Cc1ccccc1)Cc1ccco1
Category: YES
--
Smiles Notation: O=C(CCc1nc2ccccc2s1)N1CCN(S(=O)(=O)c2ccc3c(c2)OCCO3)CC1
Category: NO
--
Smiles Notation: CN(C)CCCN(C(=O)CCc1ccccc1)c1nc2ccc(Cl)cc2s1
Category: NO
--
Smiles Notation: CN1C(=O)c2ccccc2Sc2ccc(NC(=O)NCCCc3ccccc3)cc21
Category: YES
--
Smiles Notation: CN1C(=O)c2ccccc2Oc2ccc(NC(=O)c3cc4ccccc4[nH]3)cc21
Category: NO
